// values below are reported folding stability dG
B1: 6NMW (parent)
chain: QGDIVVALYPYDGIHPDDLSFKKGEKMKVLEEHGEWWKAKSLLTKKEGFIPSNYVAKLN

Variants of: B1
Assay: folding stability dG (cDNA display proteolysis); higher = more stable
Details: PBS, room temperature
Provide only the numeric value, understood in kJ/mol.

Consider the reported folding stability dG for these variants:
# mutation.annotation, folding stability dG / kJ/mol
records = [
    ("S41Y", 1.54),
    ("L58W", 15.6),
    ("K45A", 16.5),
    ("L19F", 4.25),
]

Entry `S52C` — recorded folding stability dG = 16.1

Entry `A56C` — recorded folding stability dG = 19.3
